# credit: patent US5747500A

Test system: HIV
Experiment: inhibition of HIV-induced cytopathic effect in MT-4 cells (MTT method)
Format: cell-based
Conditions: ratio CD50/ED50, MT-4 cells
Description: The anti-HIV assays were based on the inhibition of the virus-induced cytopathic effect in MT-4 cells as described in J. Virol. Methods, 16, 171 (1987). Briefly, MT-4 cells were suspended in culture medium at 2.5×10^5 cells/ml and infected with 1000 CCID50 (50% cell culture infective dose) of HIV. […] After a 4 or 5 day incubation at 37° C., the number of viable cells was determined by the 3-(4,5-dimethylthiazol-2-yl)-2,5-diphenyltetrazoliumbromide (MTT) method, as disclosed in J. Virol. […]
measure: S.I.: Selectivity index (CD50/ED50)

> print(dat)
                                    compound   result
 1  C=CCn1c(Sc2cc(C)cc(C)c2)c(CC)c(=O)[nH]c1=O [Example 18]    > 121
 2  CC#CCn1c(C(=O)c2cc(C)cc(C)c2)c(CC)c(=O)[nH]c1=O [Example 49]    > 162
 3  CC(=O)OC/C=C/Cn1c(C(=O)c2cc(C)cc(C)c2)c(C(C)C)c(=O)[nH]c1=O [Example 75]  > 6,487
 4  CCc1c(C(=O)c2cc(C)cc(C)c2)n(C/C=C/COC(C)=O)c(=O)[nH]c1=O [Example 80]  > 1,345
 5  C=CCn1c(C(=O)c2cc(C)cc(C)c2)c(CC)c(=O)[nH]c1=O [Example 43]    > 320
 6  C/C=C/Cn1c(C(=O)c2cc(C)cc(C)c2)c(C(C)C)c(=O)[nH]c1=O [Example 51]  > 2,473
 7  CCc1c(Cc2cc(C)cc(C)c2)n(CC#Cc2ccccc2)c(=O)[nH]c1=O [Example 40]    > 557
 8  Cc1cc(C)cc(C(=O)c2c(C(C)C)c(=O)[nH]c(=O)n2CC#Cc2ccccc2)c1 [Example 56]   > 75.1
 9  CCc1c(Sc2cc(C)cc(C)c2)n(CC#Cc2ccccc2)c(=O)[nH]c1=O [Example 26]    > 547
10  C/C=C/Cn1c(Cc2cc(C)cc(C)c2)c(C(C)C)c(=O)[nH]c1=O [Example 41]  > 2,104
11  CCc1c(Sc2cc(C)cc(C)c2)n(COCc2ccccc2)c(=O)[nH]c1=O [Ref. 2, reference compound]    > 672
12  CCc1c(Oc2cc(C)cc(C)c2)n(CC#Cc2ccccc2)c(=O)[nH]c1=O [Example 61]  > 1,033
13  CC#CCn1c(Sc2cc(C)cc(C)c2)c(CC)c(=O)[nH]c1=O [Example 25]     > 90
14  COC(=O)/C=C/Cn1c(C(=O)c2cc(C)cc(C)c2)c(C(C)C)c(=O)[nH]c1=O [Example 54]  > 3,005
15  CC#CCn1c(Oc2cc(C)cc(C)c2)c(CC)c(=O)[nH]c1=O [Example 58]    > 143
16  COC(=O)/C=C/Cn1c(Oc2cc(C)cc(C)c2)c(C(C)C)c(=O)[nH]c1=O [Example 66]    > 245
17  CCc1c(Sc2cc(C)cc(C)c2)n(C/C=C\CCl)c(=O)[nH]c1=O [Example 23]     > 41
18  C#CCn1c(Oc2cc(C)cc(C)c2)c(CC)c(=O)[nH]c1=O [Example 60]     > 25
19  CCc1c(C(=O)c2cc(C)cc(C)c2)n(CC=CC(=O)OC)c(=O)[nH]c1=O [Example 8]    > 143
20  C#CCn1c(C(=O)c2cc(C)cc(C)c2)c(CC)c(=O)[nH]c1=O [Example 48]     > 93
21  CCc1c(C(=O)c2cc(C)cc(C)c2)n(C/C=C/c2ccccc2)c(=O)[nH]c1=O [Example 45]    > 663
22  C#CCn1c(Sc2ccccc2)c(CC)c(=O)[nH]c1=O [Example 1]     > 46
23  CC/C=C/Cn1c(Sc2cc(C)cc(C)c2)c(CC)c(=O)[nH]c1=O [Example 2]     > 29
24  CC/C=C/Cn1c(C(=O)c2cc(C)cc(C)c2)c(C(C)C)c(=O)[nH]c1=O [Example 53]    > 665
25  CCc1c(Sc2cc(C)cc(C)c2)n(C/C=C/C(=O)OC)c(=O)[nH]c1=O [Example 21]    > 129
26  C/C=C\Cn1c(C(=O)c2cc(C)cc(C)c2)c(CC)c(=O)[nH]c1=O [Example 68]    > 162
27  C/C=C/Cn1c(Cc2ccccc2)c(CC)c(=O)[nH]c1=O [Example 32]    > 101
28  C#CCn1c(Sc2cc(C)cc(C)c2)c(CC)c(=O)[nH]c1=O [Example 24]     > 56
29  C/C=C/Cn1c(Cc2cc(C)cc(C)c2)c(CC)c(=O)[nH]c1=O [Example 5]  > 1,518
30  CC#CCn1c(Sc2cc(C)cc(C)c2)c(C(C)C)c(=O)[nH]c1=O [Example 31]     > 52
31  CCc1c(C(=O)c2cc(C)cc(C)c2)n(C/C=C\c2ccccc2)c(=O)[nH]c1=O [Example 69]    > 270
32  CC/C=C/Cn1c(Oc2cc(C)cc(C)c2)c(CC)c(=O)[nH]c1=O [Example 62]    > 251
33  CCc1c(Cc2ccccc2)n(C/C=C/c2ccccc2)c(=O)[nH]c1=O [Example 33]    > 268
34  CCOC(=O)C=CCn1c(C(=O)c2cc(C)cc(C)c2)c(CC)c(=O)[nH]c1=O [Example 72]    > 685
35  CC#CCn1c(Cc2cc(C)cc(C)c2)c(CC)c(=O)[nH]c1=O [Example 39]    > 176

###

system: HIV; assay: inhibition of HIV-induced cytopathic effect in MT-4 cells (MTT method); format: cell-based; conditions: ratio CD50/ED50, MT-4 cells
Consider the following compounds and their measured S.I.: Selectivity index (CD50/ED50) readings.
measure: S.I.: Selectivity index (CD50/ED50)

> print(dat)
                                    compound   result
 1  Cc1cc(C)cc(Oc2c(C(C)C)c(=O)[nH]c(=O)n2CC#Cc2ccccc2)c1 [Example 67]    > 844
 2  Cc1cc(C)cc(C(=O)c2c(C(C)C)c(=O)[nH]c(=O)n2C/C=C/CO)c1 [Example 76]  > 1,679
 3  CCc1c(C(=O)c2cc(C)cc(C)c2)n(C/C=C/COC)c(=O)[nH]c1=O [Example 82]    > 134
 4  Cc1cc(C)cc(Sc2c(C(C)C)c(=O)[nH]c(=O)n2CC#Cc2ccccc2)c1 [Example 3]    > 882
 5  CCc1c(Sc2cc(C)cc(C)c2)n(C/C=C/CO)c(=O)[nH]c1=O [Example 78]     > 29
 6  CCc1c(C(=O)c2cc(C)cc(C)c2)n(CC#Cc2ccccc2)c(=O)[nH]c1=O [Example 50]    > 482
 7  Cc1cc(C)cc(Sc2c(C(C)C)c(=O)[nH]c(=O)n2C/C=C/c2ccccc2)c1 [Example 29]  > 1,615
 8  CC/C=C/Cn1c(C(=O)c2cc(C)cc(C)c2)c(CC)c(=O)[nH]c1=O [Example 46]  > 1,015
 9  CC#CCn1c(Oc2cc(C)cc(C)c2)c(C(C)C)c(=O)[nH]c1=O [Example 11]    > 124
10  C=CCn1c(Sc2ccccc2)c(CC)c(=O)[nH]c1=O [Example 12]     > 54
11  COC(=O)/C=C/Cn1c(Sc2cc(C)cc(C)c2)c(C(C)C)c(=O)[nH]c1=O [Example 30]  > 1,966
12  Cc1cc(C)cc(C(=O)c2c(C(C)C)c(=O)[nH]c(=O)n2C/C=C/CCl)c1 [Example 9]    > 708
13  CCOCn1c(Cc2cc(C)cc(C)c2)c(CC)c(=O)[nH]c1=O [Ref. 1, reference compound]  > 4,962
14  CC#CCn1c(C(=O)c2cc(C)cc(C)c2)c(C(C)C)c(=O)[nH]c1=O [Example 55]    > 130
15  Cc1cc(C)cc(Cc2c(C(C)C)c(=O)[nH]c(=O)n2CC#Cc2ccccc2)c1 [Example 42]    > 824
16  C/C=C\Cn1c(Oc2cc(C)cc(C)c2)c(C(C)C)c(=O)[nH]c1=O [Example 71]    > 497
17  C/C=C/Cn1c(Oc2cc(C)cc(C)c2)c(CC)c(=O)[nH]c1=O [Example 10]  > 1,939

###

This section presents compounds with their documented CC50 values.
test: cytotoxicity: viability of mock-infected MT-4 host cells (MTT method); format: cell-based; settings: human, mt-4 cells, read-out: CD50: Cytotoxic concentration that causes death of cells by 50%
measure: CC50 (µg/mL)

> print(dat)
                                   compound  recordednumber
1  CC/C=C/Cn1c(Sc2cc(C)cc(C)c2)c(C(C)C)c(=O)[nH]c1=O [Example 28]            5.79
2  CCc1c(Oc2cc(C)cc(C)c2)n(C/C=C/C(=O)OC)c(=O)[nH]c1=O [Example 63]            7.17
3  CCc1c(Cc2cc(C)cc(C)c2)n(CC=C(C)C)c(=O)[nH]c1=O [Example 36]            22.1
4  CCOC(=O)C=CCn1c(C(=O)c2cc(C)cc(C)c2)c(CC)c(=O)[nH]c1=O [Example 72]            6.85
